System Under Test: LTK (human) (UniProt P29376)
Sequence (P29376 whole entry, looked up): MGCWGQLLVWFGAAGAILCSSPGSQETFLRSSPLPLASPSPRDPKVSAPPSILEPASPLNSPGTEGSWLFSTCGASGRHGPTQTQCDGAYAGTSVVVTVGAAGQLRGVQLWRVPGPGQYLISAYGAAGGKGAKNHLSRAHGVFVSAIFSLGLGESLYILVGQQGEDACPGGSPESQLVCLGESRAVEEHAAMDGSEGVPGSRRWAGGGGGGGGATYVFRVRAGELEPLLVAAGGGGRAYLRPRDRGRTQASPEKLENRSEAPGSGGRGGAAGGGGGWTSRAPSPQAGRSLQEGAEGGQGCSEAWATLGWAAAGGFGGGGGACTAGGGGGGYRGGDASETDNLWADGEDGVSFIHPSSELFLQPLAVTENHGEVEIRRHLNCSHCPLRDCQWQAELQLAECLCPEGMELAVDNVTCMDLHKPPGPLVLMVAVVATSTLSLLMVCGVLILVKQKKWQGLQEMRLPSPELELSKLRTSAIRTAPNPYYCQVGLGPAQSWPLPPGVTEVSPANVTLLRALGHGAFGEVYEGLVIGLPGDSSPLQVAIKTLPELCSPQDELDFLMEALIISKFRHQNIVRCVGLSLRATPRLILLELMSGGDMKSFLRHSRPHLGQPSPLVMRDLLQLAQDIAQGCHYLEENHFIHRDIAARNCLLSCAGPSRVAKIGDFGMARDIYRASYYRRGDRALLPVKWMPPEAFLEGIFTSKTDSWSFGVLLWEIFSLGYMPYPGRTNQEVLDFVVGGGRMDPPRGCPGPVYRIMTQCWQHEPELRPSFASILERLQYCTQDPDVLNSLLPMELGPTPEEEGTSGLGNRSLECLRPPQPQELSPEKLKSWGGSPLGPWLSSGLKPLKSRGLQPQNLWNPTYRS
Test Method Notes: radiometric filter-binding kinase assay, Kinase HotSpot
Test Context: compound 0.5 µM; ATP 10 µM
Quantity: residual activity (%)
Write the answer as a number in %, unit excluded.

COC(=O)[C@]1(O)C[C@@H]2O[C@@]1(C)n1c3ccccc3c3c4c(c5c6ccccc6n2c5c31)C(=O)NC4 = 9.78
NC(=O)c1ccc(-c2nc(-c3ccccn3)c(-c3ccc4c(c3)OCCO4)[nH]2)cc1 = 93.5
COc1cc2nccc(Oc3ccc(NC(=S)NC(=O)c4ccccc4C)cc3)c2cc1OC = 86.1
NC(=O)c1ccc(N(C(N)=O)c2c(F)cccc2F)nc1-c1ccc(F)cc1F = 95
Nc1nc(Nc2ccc(S(N)(=O)=O)cc2)nn1C(=O)c1c(F)cccc1F = 85.8
Cc1cc(Nc2cc(N3CCN(C)CC3)nc(Sc3ccc(NC(=O)C4CC4)cc3)n2)[nH]n1 = 84.2

[ask] Look at this molecule and give its reported residual activity. O=C1Cc2c([nH]c3ccc([N+](=O)[O-])cc23)-c2ccccc2N1
[reply] 93.9

[ask] Item Cc1cc2ncc(-c3ccccc3)nc2cc1C has what recorded residual activity?
[reply] 90.3

[ask] Form field: reported residual activity of O=C(Nc1ccc(Cl)cc1)c1ccccc1NCc1ccncc1
[reply] 104

[ask] # residual activity lookup, item CC(C)(C)c1nc2c3ccc(F)cc3c3c(=O)[nH]ccc3c2[nH]1
[reply] 20.6

[ask] # get_value(readout='residual activity', item= COc1cc2ncnc(Nc3ccc(F)c(Cl)c3)c2cc1OCCCN1CCOCC1 )
[reply] 90.4

[ask] Given the molecule Oc1ccc(-c2nc(-c3ccc(F)cc3)c(-c3ccncc3)[nH]2)cc1 , what is its reported residual activity?
[reply] 97.1

[ask] Consider the molecule COc1ccc(-c2cnc3c(-c4ccsc4)cnn3c2)cc1 and give its measured residual activity.
[reply] 98.9

[ask] Quick one: residual activity for CC(C)[C@H](CO)Nc1nc(Nc2cccc(Cl)c2)c2ncn(C(C)C)c2n1 ?
[reply] 100

---

System Under Test: EPHA5 (human)
Test Method Notes: radiometric filter-binding kinase assay, Kinase HotSpot
Test Context: compound 0.5 µM; ATP 10 µM
Quantity: residual activity

Example compounds with recorded residual activity:
COc1cc2ncnc(Nc3ccc(F)c(Cl)c3)c2cc1OCCCN1CCOCC1 = 95.8%
CSc1nc(-c2ccc(F)cc2)c(-c2ccnc(NC(C)c3ccccc3)c2)[nH]1 (stereo not given) = 106%
O=c1cc(N2CCNCC2)oc2c(-c3ccccc3)cccc12 = 109%

Could you now look at the following compound, please?
[ask] Need residual activity, item O=C(NC(NC(=S)Nc1ccc(F)c([N+](=O)[O-])c1)C(Cl)(Cl)Cl)C(c1ccccc1)c1ccccc1 (stereo not given)
[reply] 107%

---

System Under Test: EPHA7 (human) (UniProt Q15375)
Sequence (Q15375 whole entry, looked up): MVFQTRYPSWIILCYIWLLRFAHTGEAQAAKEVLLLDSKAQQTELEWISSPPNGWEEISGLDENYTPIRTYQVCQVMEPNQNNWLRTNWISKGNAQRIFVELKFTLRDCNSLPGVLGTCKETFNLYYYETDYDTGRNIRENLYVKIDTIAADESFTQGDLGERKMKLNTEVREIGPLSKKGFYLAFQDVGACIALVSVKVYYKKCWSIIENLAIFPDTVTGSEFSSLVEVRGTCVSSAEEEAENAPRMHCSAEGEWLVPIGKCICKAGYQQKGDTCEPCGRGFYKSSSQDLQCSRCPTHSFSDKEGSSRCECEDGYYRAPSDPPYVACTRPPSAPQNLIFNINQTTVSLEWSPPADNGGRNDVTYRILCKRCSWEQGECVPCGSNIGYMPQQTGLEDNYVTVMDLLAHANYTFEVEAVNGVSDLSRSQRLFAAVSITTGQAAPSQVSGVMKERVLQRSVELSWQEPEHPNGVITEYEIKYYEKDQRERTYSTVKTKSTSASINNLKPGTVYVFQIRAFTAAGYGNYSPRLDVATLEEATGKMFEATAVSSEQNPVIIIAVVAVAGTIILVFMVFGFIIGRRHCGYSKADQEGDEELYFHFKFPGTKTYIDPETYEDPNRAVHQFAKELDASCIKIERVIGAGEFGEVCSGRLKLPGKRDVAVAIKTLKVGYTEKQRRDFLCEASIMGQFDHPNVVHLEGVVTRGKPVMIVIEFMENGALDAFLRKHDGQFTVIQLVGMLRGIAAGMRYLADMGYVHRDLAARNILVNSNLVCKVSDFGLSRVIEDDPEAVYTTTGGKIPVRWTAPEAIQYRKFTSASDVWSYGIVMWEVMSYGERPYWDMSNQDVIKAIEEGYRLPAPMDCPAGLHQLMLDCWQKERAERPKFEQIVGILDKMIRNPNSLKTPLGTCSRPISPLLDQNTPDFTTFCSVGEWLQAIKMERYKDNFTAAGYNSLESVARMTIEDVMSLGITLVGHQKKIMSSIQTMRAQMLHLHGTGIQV
Test Method Notes: radiometric filter-binding kinase assay, Kinase HotSpot
Test Context: compound 0.5 µM; ATP 10 µM
Label 1 when residual activity is at or above 90%; otherwise label -1.

Below, 7 molecules whose answers are already recorded.
Nc1n[nH]c2nnc(-c3c(-c4ccccc4)nn4ccccc34)cc12 = 1
O=C(NC(NC(=S)Nc1ccc(F)c([N+](=O)[O-])c1)C(Cl)(Cl)Cl)C(c1ccccc1)c1ccccc1 (stereo not given) = 1
CCCNC(=O)Nc1ccc(Oc2ncnc3cc(OC)c(OC)cc23)cc1Cl = -1
CC(C)[C@H](CO)Nc1nc(Nc2cccc(Cl)c2)c2ncn(C(C)C)c2n1 = -1
O=c1cc(N2CCNCC2)oc2c(-c3ccccc3)cccc12 = 1
O=C1Cc2c([nH]c3ccc([N+](=O)[O-])cc23)-c2ccccc2N1 = 1
O=c1cc(-c2cccc3c2Sc2ccccc2S3)oc(N2CCOCC2)c1 = 1

[ask] Can Nc1nc(Nc2ccc(S(N)(=O)=O)cc2)nn1C(=S)Nc1c(F)cccc1F be said to have residual activity at or above 90%?
[reply] -1

---

Catalogue of molecules with associated residual activity
System Under Test: PRKCH (human)
Test Method Notes: radiometric filter-binding kinase assay, Kinase HotSpot
Test Context: compound 0.5 µM; ATP 10 µM
The figure you give is taken to be in %; do not add the unit.

Example results:
O=C(Nc1ccc(Cl)cc1)c1ccccc1NCc1ccncc1 = 96.2
Nc1n[nH]c2nnc(-c3c(-c4ccccc4)nn4ccccc34)cc12 = 77.2
CCCNC(=O)Nc1ccc(Oc2ncnc3cc(OC)c(OC)cc23)cc1Cl = 101

// switching to the query molecule
[ask] Give the reported residual activity for NC(=O)c1ccc(N(C(N)=O)c2c(F)cccc2F)nc1-c1ccc(F)cc1F (system: PRKCH (human)).
[reply] 112

---

System Under Test: CAMK2D (human) (UniProt Q13557)
Sequence (Q13557 whole entry, looked up): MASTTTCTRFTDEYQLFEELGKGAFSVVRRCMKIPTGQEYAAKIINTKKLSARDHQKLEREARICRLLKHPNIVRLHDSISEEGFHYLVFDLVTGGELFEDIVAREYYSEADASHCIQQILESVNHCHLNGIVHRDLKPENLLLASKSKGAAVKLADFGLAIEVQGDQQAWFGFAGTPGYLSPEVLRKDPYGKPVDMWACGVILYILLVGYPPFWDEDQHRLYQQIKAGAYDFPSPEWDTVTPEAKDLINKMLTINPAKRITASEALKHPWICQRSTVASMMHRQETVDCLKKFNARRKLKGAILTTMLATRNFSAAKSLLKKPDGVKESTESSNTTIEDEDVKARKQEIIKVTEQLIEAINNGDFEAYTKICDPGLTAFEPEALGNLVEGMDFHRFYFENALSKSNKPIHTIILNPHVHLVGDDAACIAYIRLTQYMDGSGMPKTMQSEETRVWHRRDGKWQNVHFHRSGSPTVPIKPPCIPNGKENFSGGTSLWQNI
Test Method Notes: radiometric filter-binding kinase assay, Kinase HotSpot
Test Context: compound 0.5 µM; ATP 10 µM
Quantity: residual activity (%)
The reply should be a number in %, with the unit left off.

// solved cases for residual activity follow
O=C(Nc1ccc(Cl)cc1)c1ccccc1NCc1ccncc1 = 101
Cc1ccc(NC(=O)c2ccc(CN3CCN(C)CC3)cc2)cc1Nc1nc(-c2cccnc2)cs1 = 106
O=C(NC(NC(=S)Nc1ccc(F)c([N+](=O)[O-])c1)C(Cl)(Cl)Cl)C(c1ccccc1)c1ccccc1 (stereo not given) = 102

[ask] Write down the reported residual activity of O=c1cc(N2CCNCC2)oc2c(-c3ccccc3)cccc12 , test system: CAMK2D (human) (UniProt Q13557).
[reply] 93.6

[ask] Look up residual activity with CAMK2D (human) (UniProt Q13557) for this molecule: Oc1ccc(-c2nc(-c3ccc(F)cc3)c(-c3ccncc3)[nH]2)cc1
[reply] 88.1

[ask] # returns recorded residual activity (system: CAMK2D (human) (UniProt Q13557)) for Clc1ccc(Nc2nnc(Cc3ccncc3)c3ccccc23)cc1
[reply] 81.1

[ask] Lab note: need residual activity with CAMK2D (human) (UniProt Q13557) for entry O=C1Nc2ccccc2/C1=C\c1c(Cl)[nH]c2ccccc12 , please look it up.
[reply] 86.7

[ask] Which residual activity is reported with CAMK2D (human) (UniProt Q13557) for this entry: COc1cc2nccc(Oc3ccc(NC(=S)NC(=O)c4ccccc4C)cc3)c2cc1OC ?
[reply] 102

[ask] Record lookup: for CAMK2D (human) (UniProt Q13557), what residual activity belongs to Cc1cc2ncc(-c3ccccc3)nc2cc1C ?
[reply] 88.1

[ask] Hello, I am looking for reported residual activity with CAMK2D (human) (UniProt Q13557) for CC(C)[C@H](CO)Nc1nc(Nc2cccc(Cl)c2)c2ncn(C(C)C)c2n1 . Could you help?
[reply] 102

---

The reader will find reported residual activity values listed item by item below.
System Under Test: TNK2 (human)
Test Method Notes: radiometric filter-binding kinase assay, Kinase HotSpot
Test Context: compound 0.5 µM; ATP 10 µM

Example results:
O=C1Cc2c([nH]c3ccc([N+](=O)[O-])cc23)-c2ccccc2N1 = 74.9%
CCN1/C(=C/C(C)=O)Sc2ccc(OC)cc21 = 102%
Nc1nc(Nc2ccc(S(N)(=O)=O)cc2)nn1C(=O)c1c(F)cccc1F = 68%
COc1cc2ncnc(Nc3ccc(F)c(Cl)c3)c2cc1OCCCN1CCOCC1 = 72.8%
Cc1cc2ncc(-c3ccccc3)nc2cc1C = 98.4%

[ask] Could you tell me which residual activity is on file for O=c1cc(-c2cccc3c2Sc2ccccc2S3)oc(N2CCOCC2)c1 ?
[reply] 95.7%

[ask] I'd like to know its residual activity. The compound in question is CC(C)[C@H](CO)Nc1nc(Nc2cccc(Cl)c2)c2ncn(C(C)C)c2n1
[reply] 55.6%

[ask] If you can, please state the reported residual activity value of COc1cc2nccc(Oc3ccc(NC(=S)NC(=O)c4ccccc4C)cc3)c2cc1OC .
[reply] 26.9%

[ask] I would be grateful if you could share the reported residual activity for CSc1nc(-c2ccc(F)cc2)c(-c2ccnc(NC(C)c3ccccc3)c2)[nH]1 (centres undefined) .
[reply] 78.4%

[ask] Given the compound O=C(Nc1ccc(Cl)cc1)c1ccccc1NCc1ccncc1 , what is its reported residual activity?
[reply] 99.3%

[ask] // returns reported residual activity for input Cc1ccc(NC(=O)c2ccc(CN3CCN(C)CC3)cc2)cc1Nc1nc(-c2cccnc2)cs1
[reply] 95.7%

[ask] // lookup residual activity for Oc1ccc(-c2nc(-c3ccc(F)cc3)c(-c3ccncc3)[nH]2)cc1
[reply] 83.2%

[ask] Need residual activity, item O=C1Nc2ccccc2/C1=C\c1c(Cl)[nH]c2ccccc12
[reply] 98.4%

[ask] Returns the measured residual activity for the input compound. Input: CC(C)(C)c1nc2c3ccc(F)cc3c3c(=O)[nH]ccc3c2[nH]1
[reply] 4.36%

---

Measured residual activity, listed per entry for reference.
System Under Test: CDK6 CCND1 (human) (UniProt Q00534+P24385)
Sequence (P24385 whole entry, looked up): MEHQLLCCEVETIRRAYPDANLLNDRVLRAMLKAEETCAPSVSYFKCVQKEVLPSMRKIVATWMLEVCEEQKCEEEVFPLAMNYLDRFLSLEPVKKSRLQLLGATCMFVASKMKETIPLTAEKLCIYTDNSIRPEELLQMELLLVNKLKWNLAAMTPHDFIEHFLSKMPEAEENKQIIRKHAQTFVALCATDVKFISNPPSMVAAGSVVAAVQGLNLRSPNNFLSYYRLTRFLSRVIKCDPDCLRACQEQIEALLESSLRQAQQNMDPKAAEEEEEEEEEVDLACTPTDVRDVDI
Sequence (Q00534 whole entry, looked up): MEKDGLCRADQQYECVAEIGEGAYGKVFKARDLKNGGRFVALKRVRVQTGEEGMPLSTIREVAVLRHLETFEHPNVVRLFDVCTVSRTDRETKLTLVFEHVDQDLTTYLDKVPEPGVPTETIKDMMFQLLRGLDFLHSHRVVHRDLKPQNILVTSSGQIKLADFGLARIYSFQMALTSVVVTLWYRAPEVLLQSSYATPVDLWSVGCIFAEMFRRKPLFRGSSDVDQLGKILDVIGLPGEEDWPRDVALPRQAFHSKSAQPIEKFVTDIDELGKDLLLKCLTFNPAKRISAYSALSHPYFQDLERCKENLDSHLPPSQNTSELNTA
Test Method Notes: radiometric filter-binding kinase assay, Kinase HotSpot
Test Context: compound 0.5 µM; ATP 10 µM
Answer in %, number only, no unit symbol.

Past entries and their recorded results:
COc1cc2ncnc(Nc3ccc(F)c(Cl)c3)c2cc1OCCCN1CCOCC1 = 98.7
O=C(NC(NC(=S)Nc1ccc(F)c([N+](=O)[O-])c1)C(Cl)(Cl)Cl)C(c1ccccc1)c1ccccc1 (stereo not given) = 101
Clc1ccc(Nc2nnc(Cc3ccncc3)c3ccccc23)cc1 = 93
O=C1Cc2c([nH]c3ccc([N+](=O)[O-])cc23)-c2ccccc2N1 = 16.8

Here's the next entry for you.
[ask] What is its residual activity for CDK6 CCND1 (human) (UniProt Q00534+P24385)? Entry: NC(=O)c1ccc(-c2nc(-c3ccccn3)c(-c3ccc4c(c3)OCCO4)[nH]2)cc1
[reply] 106
